Data origin: patent US20240408169A1

- Tested on: OVCAR3 cells
- Protocol: MTT proliferation assay, OVCAR3;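 further: compound given as an 8- or 10-point series, one day after plating, with exposure covering roughly 3-4 cell doublings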
- Format: cell-based
- Stated Conditions: 5 days compound exposure, 1:3 serial dilution starting at 10 μM
*1 amine or outer side, *2 acyl side, *3 side chain or, on linkers, in order; H or OH if unused. Where a SMILES comes first, the peptide text is derived from it. Bridges are numbered along the chain shown (N, C = ends). [ ]: non-standard residue; d: D form. The star is where a group is joined. X126 = CC(C)C(=O)N1[C@H]2COC[C@@H]1C=C(c1ccc(F)cc1C[C@@H](C(=O)[*:2])N(C)[*:1])C2; X167 = CN([C@@H](Cc1cc(F)ccc1C1=CCN(S(C)(=O)=O)CC1)C(=O)[*:2])[*:1]; X26 = CN([C@@H](Cc1cc(F)ccc1-c1cnn(C2CC2)c1)C(=O)[*:2])[*:1]; NMehhhLys(Me) = CN([C@@H](CCCCCCCN(C)[*:3])C(=O)[*:2])[*:1]; X215 = Cc1noc(C)c1-c1ccc(Cl)cc1C[C@@H](C(=O)[*:2])N(C)[*:1]; NMe3Pal(2-OiPr,5-Cl) = CN[C@@H](Cc1cc(Cl)cnc1OC(C)C)C(=O)O; X117 = Cc1cc(-c2ccc(F)cc2C[C@@H](C(=O)[*:2])N(C)[*:1])cnn1; X22 = CN([C@@H](Cc1cc(Cl)ccc1-c1cnn(C)c1)C(=O)[*:2])[*:1]; X44 = Cc1nnc(-c2ccc(Cl)cc2C[C@@H](C(=O)[*:2])N(C)[*:1])o1; NMe(hhhLys) = CN([C@@H](CCCCCCCN[*:3])C(=O)[*:2])[*:1]; X210 = CC(C)=Cc1ccc(Cl)cc1C[C@@H](C(=O)[*:2])N(C)[*:1]; NMe3Pal(2-OMe,5-Cl) = CN[C@@H](Cc1cc(Cl)cnc1OC)C(=O)O; Oxane2carbonyl(2R-CF3) = O=C([C@@]1(C(F)(F)F)CCCCO1)*; Cyclobutanecarbonyl(1-CF3) = O=C(C1(C(F)(F)F)CCC1)*; X94 = CN([C@@H](Cc1cc(F)ccc1C1CC1)C(=O)[*:2])[*:1]; cBuCO(3,3-F2-1-CF3) = O=C(C1(C(F)(F)F)CC(F)(F)C1)*; Pro(trans-4-F) = O=C(O)[C@@H]1C[C@@H](F)CN1; Gly(cPr) = N[C@H](C(=O)O)C1CC1
Items are presented alongside their recorded GI50.
Unit µM implied. Number only.

Would you please look over these solved cases?
Which GI50 value is on record for CC(C)C[C@@H]1NC(=O)[C@@H](N(C)C(=O)[C@@H](NC(=O)[C@@H]2C[C@@H](F)CN2C(=O)C2(C(F)(F)F)CC(F)(F)C2)C2CC2)CCCCCCCN(C)C(=O)[C@H](Cc2cc(F)ccc2C2=CCN(S(C)(=O)=O)CC2)N(C)C1=O [Example 100] ({cBuCO(3,3-F2-1-CF3)}-[Pro(trans-4-F)][Gly(cPr)][NMehhhLys(Me)]L[X167]; lactam 3-C) ?
0.02

Which GI50 value is on record for CC(C)C[C@@H]1NC(=O)[C@@H](N(C)C(=O)[C@@H](NC(=O)[C@@H]2C[C@@H](F)CN2C(=O)C2(C(F)(F)F)CCC2)C2CC2)CCCCCCCN(C)C(=O)[C@H](Cc2cc(Cl)cnc2OC(C)C)N(C)C1=O [Example 119] ({Cyclobutanecarbonyl(1-CF3)}-[Pro(trans-4-F)][Gly(cPr)][NMehhhLys(Me)]L[NMe3Pal(2-OiPr,5-Cl)]; lactam 3-C) ?
0.3

Which GI50 value is on record for Cc1nnc(-c2ccc(Cl)cc2C[C@H]2C(=O)NCCCCCCC[C@H](N(C)C(=O)[C@@H](NC(=O)[C@@H]3C[C@@H](F)CN3C(=O)C3(C(F)(F)F)CC(F)(F)C3)C3CC3)C(=O)N[C@@H](CC(C)C)C(=O)N2C)o1 [Example 160] ({cBuCO(3,3-F2-1-CF3)}-[Pro(trans-4-F)][Gly(cPr)][NMe(hhhLys)]L[X44]; lactam 3-C) ?
0.02

Which GI50 value is on record for CC(C)C[C@@H]1NC(=O)[C@@H](N(C)C(=O)[C@@H](NC(=O)[C@@H]2C[C@@H](F)CN2C(=O)C2(C(F)(F)F)CCC2)C2CC2)CCCCCCCN(C)C(=O)[C@H](Cc2cc(F)ccc2-c2cnn(C3CC3)c2)N(C)C1=O [Example 186] ({Cyclobutanecarbonyl(1-CF3)}-[Pro(trans-4-F)][Gly(cPr)][NMehhhLys(Me)]L[X26]; lactam 3-C) ?
0.01

Which GI50 value is on record for CC(C)C[C@@H]1NC(=O)[C@@H](N(C)C(=O)[C@@H](NC(=O)[C@@H]2C[C@@H](F)CN2C(=O)C2(C(F)(F)F)CC(F)(F)C2)C2CC2)CCCCCCCN(C)C(=O)[C@H](Cc2cc(F)ccc2C2CC2)N(C)C1=O [Example 121] ({cBuCO(3,3-F2-1-CF3)}-[Pro(trans-4-F)][Gly(cPr)][NMehhhLys(Me)]L[X94]; lactam 3-C) ?
0.07

Which GI50 value is on record for CC(C)=Cc1ccc(Cl)cc1C[C@H]1C(=O)NCCCCCCC[C@H](N(C)C(=O)[C@@H](NC(=O)[C@@H]2C[C@@H](F)CN2C(=O)C2(C(F)(F)F)CC(F)(F)C2)C2CC2)C(=O)N[C@@H](CC(C)C)C(=O)N1C [Example 62] ({cBuCO(3,3-F2-1-CF3)}-[Pro(trans-4-F)][Gly(cPr)][NMe(hhhLys)]L[X210]; lactam 3-C) ?
0.07

Next:
Which GI50 value is on record for Cc1noc(C)c1-c1ccc(Cl)cc1C[C@H]1C(=O)N(C)CCCCCCC[C@H](N(C)C(=O)[C@@H](NC(=O)[C@@H]2C[C@@H](F)CN2C(=O)C2(C(F)(F)F)CC(F)(F)C2)C2CC2)C(=O)N[C@@H](CC(C)C)C(=O)N1C [Example 210] ({cBuCO(3,3-F2-1-CF3)}-[Pro(trans-4-F)][Gly(cPr)][NMehhhLys(Me)]L[X215]; lactam 3-C) ?
0.11

Which GI50 value is on record for COc1ncc(Cl)cc1C[C@H]1C(=O)N(C)CCCCCCC[C@H](N(C)C(=O)[C@@H](NC(=O)[C@@H]2C[C@@H](F)CN2C(=O)[C@@]2(C(F)(F)F)CCCCO2)C2CC2)C(=O)N[C@@H](CC(C)C)C(=O)N1C [Example 223] ({Oxane2carbonyl(2R-CF3)}-[Pro(trans-4-F)][Gly(cPr)][NMehhhLys(Me)]L[NMe3Pal(2-OMe,5-Cl)]; lactam 3-C) ?
0.01

Which GI50 value is on record for CC(C)C[C@@H]1NC(=O)[C@@H](N(C)C(=O)[C@@H](NC(=O)[C@@H]2C[C@@H](F)CN2C(=O)C2(C(F)(F)F)CC(F)(F)C2)C2CC2)CCCCCCCN(C)C(=O)[C@H](Cc2cc(F)ccc2C2=C[C@H]3COC[C@@H](C2)N3C(=O)C(C)C)N(C)C1=O [Example 328] ({cBuCO(3,3-F2-1-CF3)}-[Pro(trans-4-F)][Gly(cPr)][NMehhhLys(Me)]L[X126]; lactam 3-C) ?
0.01

Which GI50 value is on record for Cc1cc(-c2ccc(F)cc2C[C@H]2C(=O)NCCCCCCC[C@H](N(C)C(=O)[C@@H](NC(=O)[C@@H]3C[C@@H](F)CN3C(=O)C3(C(F)(F)F)CC(F)(F)C3)C3CC3)C(=O)N[C@@H](CC(C)C)C(=O)N2C)cnn1 [Example 294] ({cBuCO(3,3-F2-1-CF3)}-[Pro(trans-4-F)][Gly(cPr)][NMe(hhhLys)]L[X117]; lactam 3-C) ?
0.13

Which GI50 value is on record for CC(C)C[C@@H]1NC(=O)[C@@H](N(C)C(=O)[C@@H](NC(=O)[C@@H]2C[C@@H](F)CN2C(=O)[C@@]2(C(F)(F)F)CCCCO2)C2CC2)CCCCCCCN(C)C(=O)[C@H](Cc2cc(Cl)ccc2-c2cnn(C)c2)N(C)C1=O [Example 184] ({Oxane2carbonyl(2R-CF3)}-[Pro(trans-4-F)][Gly(cPr)][NMehhhLys(Me)]L[X22]; lactam 3-C) ?
0.01
